Test: Plasma vasopressin concentrations and pharmacokinetics after IV or IM vasopressin
Assay type: in vivo, neonatal piglets
Conditions: pig, plasma; 8 IU/kg IM, 1 min after administration; anesthetized piglets 1–3 days old, arterial blood, exogenous arginine vasopressin only; n = 5/group; median (IQR); read-out: Plasma vasopressin concentration
Experimental: Following surgical instrumentation and stabilization, a consecutively numbered, sealed brown envelope containing the group allocation was opened (Figure 1). […] Demographics of study piglets were recorded. Transonic flow probes, heart rate, and pressure transducer outputs, and Millar catheter were digitized and recorded with LabChart® 8.1.30, programming software (ADInstruments, Houston, TX, USA). […] Since pigs produce lysine vasopressin, endogenous vasopressin concentrations could not be quantified. […]
QUANTITY: level at 1 min (ng/mL)

• NC(=O)CC[C@@H]1NC(=O)[C@H](Cc2ccccc2)NC(=O)[C@H](Cc2ccc(O)cc2)NC(=O)[C@@H](N)CSSC[C@@H](C(=O)N2CCC[C@H]2C(=O)N[C@@H](CCCN=C(N)N)C(=O)NCC(N)=O)NC(=O)[C@H](CC(N)=O)NC1=O = 0.39
